target_or_test_system: T1, CD19 antigen on Daudi lymphoma cells (human, UniProt P15391 20-556)
T1 construct: whole, on cells; also called Daudi cells
T1 sequence (looked up): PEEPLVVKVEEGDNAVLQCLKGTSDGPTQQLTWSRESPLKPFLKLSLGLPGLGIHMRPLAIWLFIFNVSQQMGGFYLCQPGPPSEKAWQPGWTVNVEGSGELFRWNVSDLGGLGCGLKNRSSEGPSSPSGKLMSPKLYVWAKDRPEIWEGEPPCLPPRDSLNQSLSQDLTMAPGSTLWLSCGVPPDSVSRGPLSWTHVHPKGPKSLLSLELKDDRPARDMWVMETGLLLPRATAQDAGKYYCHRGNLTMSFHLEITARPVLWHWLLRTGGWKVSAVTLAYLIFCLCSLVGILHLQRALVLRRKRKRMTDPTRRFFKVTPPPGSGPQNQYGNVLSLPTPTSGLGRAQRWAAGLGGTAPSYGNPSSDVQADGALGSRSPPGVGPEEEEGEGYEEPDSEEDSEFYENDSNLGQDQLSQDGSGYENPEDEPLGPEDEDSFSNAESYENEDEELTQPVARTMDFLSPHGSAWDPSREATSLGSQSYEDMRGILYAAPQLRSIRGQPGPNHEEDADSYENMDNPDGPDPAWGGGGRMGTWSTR
procedure_text: FACS competition on Daudi cells; unlabeled antibody 800 ng/ml (8x) vs competitor biotin-B4 VH0/VK0 100 ng/ml
Item-by-item account of % inhibition of labeled B4 binding
All answers are understood in %, so give the number only.

Sample answers from the record:
B4 VHv2/VKv1 antibody (antibody, V domains shown) VH: QVQLQQPGAEVVKPGASVRLSCKTSGYTFTSNWMHWVKQRPGQGLEWIGEIDPSDSYTNYNQKFKGKAELTVDKSSSTAYMEVSDLTSEDSAVYYCARGSNPYYYAMDYWGQGTSVTVSS VL: QIALTQEPAIMSASPGEKVTMTCSASSGVNYMHWYQQKPGTSPKRWIYDTSKLDSGVPARFSGSGSGTSYSLTISSMEAEDAATYYCHQRGSYTFGGGTKLEIK : 56
B4 VHv3/VKv4 antibody (antibody, V domains shown) VH: QVQLEQPGAEVKKPGASVKVSCKASGYTFTSNWMHWVKQRPGQGLEWIGEIDPSDSYTNYNQKFKGKAKLTVDKSSSTAYMEVSDLTAEDSAVYYCARGSNPYYYAMDYWGQGTSVTVSS VL: QIVLTQSPATLSASPGEKATMTCSASSGVNYMHWYQQKPGTSPKRWIYDTDKTASGVPARFSGSGSGTSYSLTISSMEAEDAATYYCHQRGSYTFGGGTKLEIK : 60

input: I am curious: what % inhibition of labeled B4 binding value has been reported for B4 VH0/VK0 antibody (antibody, V domains shown, Expressed from pdHL12 as intact heavy and light chains; also called parental B4 antibody) VH: QVQLQQPGAEVVKPGASVRLSCKTSGYTFTSNWMHWVKQRPGQGLEWIGEIDPSDSYTNYNQKFKGKAKLTVDKSSSTAYMEVSSLTSEDSAVYYCARGSNPYYYAMDYWGQGTSVTVSS VL: QIVLTQSPAIMSASPGEKVTMTCSASSGVNYMHWYQQKPGTSPKRWIYDTSKLASGVPARFSGSGSGTSYSLTISSMEAEDAATYYCHQRGSYTFGGGTKLEIK ?
output: 68

input: Suppose we examine the binder B4 VHv2/VKv2 antibody (antibody, V domains shown) VH: QVQLQQPGAEVVKPGASVRLSCKTSGYTFTSNWMHWVKQRPGQGLEWIGEIDPSDSYTNYNQKFKGKAELTVDKSSSTAYMEVSDLTSEDSAVYYCARGSNPYYYAMDYWGQGTSVTVSS VL: DIVLTQSPATLSASPGEKVTMTCSASSGVNYMHWYQQKPGTSPKRWIYDTSKLDSGVPARFSGSGSGTSYSLTISSMEAEDAATYYCHQRGSYTFGGGTKLEIK ; what % inhibition of labeled B4 binding value has been reported?
output: 56

input: Please look up its % inhibition of labeled B4 binding: B4 VHv4/VKv3 antibody (antibody, V domains shown) VH: QVQLEQPGAEVVKPGASVKVSCKTSGYTFTSNWMHWVKQTPGKGLEWIGEIDPSDSYTNYNQKFDGKAKLTVDKSSSTAYMEVSDLTAEDSATYYCARGSNPYYYAMDYWGQGTSVTVSS VL: QIVLTQSPATLSASPGEKATMTCSASSGANYMHWYQQKPGTSPKRWIYDTSKLASGVPARFSGSGSGTSYSLTIESMEAEDAATYYCHQRGSYTFGGGTKLEIK
output: 56
